Test system: UACC-62 melanoma
Test: NCI-60 one-dose screen, 48 h
Settings: 10 µM unless noted
Compounds without any hit were thinned out: in the full panel of roughly 83,000, 20% have a hit. The source made the active and inactive calls. Rule for the calls: active = growth percent below 10; inactive = the rest.
Form entry, call: pick from active, inactive

[[record]]
compound = "[N-]=[N+]=CC(=O)CCC(=O)C=[N+]=[N-]"
category_label = "inactive"

[[record]]
compound = "O=S1(=O)OCCO1"
category_label = "inactive"


Could you now look at the following compound, please?
Ask: Just curious, what result did CCOC(=O)P(=O)(OCC)OCC get here?
Result: inactive

* * *

System: SF-539 CNS
Experiment: NCI-60 one-dose screen, 48 h
Settings: 10 µM unless noted
Compounds without any hit were thinned out: in the full panel of roughly 83,000, 20% have a hit. Calls of active or inactive are those of the source. Rule for the calls: active = growth percent below 10; inactive = the rest.
Form entry, call: pick from label 1 = active, label 0 = inactive

// known answers, use as guide
[[record]]
compound = "Cc1c(C)c(N)c(C)c(C)c1N"
category_label = "label 0"

[[record]]
compound = "COC(=O)C12C3C4C1C1C2C3C41NC(=O)c1csc([C@@H](C[C@H](C(C)C)N(C)C(=O)[C@@H](NC(=O)[C@H]2CCCCN2C)C2CC2)OC(C)=O)n1 (stereo not given in full)"
category_label = "label 1"


Ask: Just curious, what result did CCC1(CCSC#N)C(=O)NC(=O)NC1=O get here?
Result: label 0

Ask: COc1ccc2c(c1)C1(C)CCN(C)CC(C1)C2O (stereo not given) ?
Result: label 0

Ask: COc1cc2c(cc1OC)-c1c3c(cc4c1[C@@H](C2)N(C)CC4)OCO3 ?
Result: label 0

Ask: Oc1cc(N2CC2)c(O)cc1N1CC1 ?
Result: label 1

Ask: CC(=O)Cc1ccc2c(c1)OCO2 ?
Result: label 0

Ask: Oc1ccccc1C=NCCN=Cc1ccccc1O.[Fe] ?
Result: label 0

Ask: CCCCOC(N)=O ?
Result: label 0

Ask: Nc1cccnc1 ?
Result: label 0

Ask: Cc1ccc(NC2=N[C@]34CC(=O)CC[C@]3(C)[C@H]3CC[C@]5(C)C(=O)CC[C@H]5[C@@H]3C[C@@H]4S2)c(C)c1 ?
Result: label 1

Ask: CCC1(NC(=O)c2cc(F)c(F)c(F)c2F)C(=O)NC(=O)N(C(C)C)C1=O (stereo not given) ?
Result: label 0

Ask: O=C1NC(=O)C(=C/C=C/c2ccccc2)C(=O)N1 ?
Result: label 0

Ask: CC[C@H](C)[C@H](NC(=O)c1cnccn1)C(=O)N(C)[C@H](C[C@@H](OC(C)=O)c1nc(C(=O)N[C@@H](Cc2ccccc2)C[C@H](C)C(=O)OC)cs1)C(C)C ?
Result: label 1

Ask: CC(=O)c1cccc(S(=O)(=O)F)c1 ?
Result: label 0

Ask: S=P(SP(=S)(c1ccccc1)c1ccccc1)(c1ccccc1)c1ccccc1 ?
Result: label 0

Ask: COc1ccc2c(c1)c(-c1nc(-c3c[nH]c4ncccc34)cs1)cn2CCCCN1CCOCC1 ?
Result: label 0

* * *

Tested on: M14 melanoma
Experiment: NCI-60 one-dose screen, 48 h (100 = growth as untreated, 0 = no growth, -100 = all killed)
Details: 10 µM unless noted
Compounds without any hit were thinned out: in the full panel of roughly 83,000, 20% have a hit.
Readout type: growth (%)
Hi! Could you send only the number? It should be in %, unit omitted.

Ask: Name the recorded growth for CC(=O)c1cccc(S(=O)(=O)F)c1 .
Result: 91.3

Ask: O=P1(N(CCCl)CCCl)NCCCO1 (configuration not stated) ?
Result: 101

Ask: Cc1cc(N(CCCl)CCCl)ccc1C=Nc1ccc(-c2csc(-c3ccccc3)n2)cc1 ?
Result: 92.6

Ask: CCOC(=O)P(=O)(OCC)OCC ?
Result: 116

Ask: O=C1C=C(N2CC2)c2ccccc2C1=O ?
Result: 63.6

Ask: Cc1ccc(P(=O)(O)O)cc1 ?
Result: 104
